Tested on: SK-ES-1
measurement description: relative viability vs DMSO control (72 h) (fraction); higher = more viable cells
cond: 0.01372 µM
// relative viability lookup, one value per entry
parameter: relative viability

>>> result("Cc1cc2c(F)c(Oc3ncnn4cc(OC[C@@H](C)OC(=O)[C@H](C)N)c(C)c34)ccc2[nH]1 [Brivanib_alaninate]")
1.05
>>> result("O=C1CCc2c(Oc3ccc4c(c3)[C@@H]3[C@H](O4)[C@H]3c3nc4cc(C(F)(F)F)ccc4[nH]3)ccnc2N1 [Lifirafenib]")
1.09
>>> result("CS(=O)(=O)CCNCc1ccc(-c2ccc3ncnc(Nc4ccc(OCc5cccc(F)c5)c(Cl)c4)c3c2)o1 [Lapatinib]")
1.06
>>> result("CNC(=O)c1cccc2cc(Oc3ccnc4cc(OCC5(N)CC5)c(OC)cc34)ccc12 [Lucitanib]")
1.01
>>> result("COC(=O)c1ccc2c(c1)NC(=O)/C2=C(\\Nc1ccc(N(C)C(=O)CN2CCN(C)CC2)cc1)c1ccccc1 [Nintedanib]")
1.03
>>> result("C#Cc1cccc(Nc2ncnc3cc4c(cc23)OCCOCCOCCO4)c1 [Icotinib]")
1.07
>>> result("O=C(/C=C\\n1cnc(-c2cc(C(F)(F)F)cc(C(F)(F)F)c2)n1)NNc1cnccn1 [Selinexor]")
0.953
>>> result("CN(C)C/C=C/C(=O)Nc1cc2c(Nc3ccc(F)c(Cl)c3)ncnc2cc1O[C@H]1CCOC1 [Afatinib]")
1.03
